Source listed as PubChem BioAssay AID1159580.

Assay: chemical genetic growth profiling, strain panel (AID 1159580);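 further: tested at 20 µM; growth read once vehicle control cultures reached saturation at 30 °C; 1 = growth at the plate median or of vehicle wells; lower values mean less growth of the strain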
Details: S. cerevisiae deletion strains, growth OD, locus YOR080W, strain dia2, hits give low values
Hit rate of the full screen: of about 5,500 compounds, about 2,000 (36%) were called active. Another 18% or so got no clear call; they are omitted. This is one part of the list.
measured_property: normalized growth
One number for each entry.

# count of solved cases: 10
{"compound": "CC(C)c1c(O)ccc2c1CCC1[C@@](C)(C=O)CCC[C@]21C (stereo not given in full)", "measured_property": "normalized growth", "result_value": 0.996}
{"compound": "CC[n+]1c(-c2ccccc2)c2cc(N)ccc2c2ccc(N)cc21", "measured_property": "normalized growth", "result_value": 0.988}
{"compound": "O=c1c(O)c(-c2ccc(O)c(O)c2)oc2cc(O)cc(O)c12", "measured_property": "normalized growth", "result_value": 0.925}
{"compound": "C=CC1C2=CCOC(=O)C2=COC1OC1OC(CO)C(O)C(O)C1O (stereo not given)", "measured_property": "normalized growth", "result_value": 1.02}
{"compound": "Cc1ccccc1OCC(O)CO (stereo not given)", "measured_property": "normalized growth", "result_value": 0.968}
{"compound": "CC(C)c1c(O)c(-c2cc3c(c(C(C)C)c2O)CCC2C(C)(C)CCC[C@]32C)cc2c1CCC1C(C)(C)CCC[C@]21C (stereo not given in full)", "measured_property": "normalized growth", "result_value": 0.953}
{"compound": "CCC(=O)c1c(O)cc(O)cc1O", "measured_property": "normalized growth", "result_value": 0.981}
{"compound": "CCCCOc1cc(C(=O)NCCN(CC)CC)c2ccccc2n1", "measured_property": "normalized growth", "result_value": 0.962}
{"compound": "CC1O[C@@H](Oc2c(-c3ccc(O)c(O)c3)oc3cc(O)cc(O)c3c2=O)[C@H](O)[C@H](O)[C@H]1O (stereo not given in full)", "measured_property": "normalized growth", "result_value": 0.988}
{"compound": "CCCCCCC(C)OC(=O)COc1ccc(Cl)cc1Cl (stereo not given)", "measured_property": "normalized growth", "result_value": 0.995}

I'm hoping you can list normalized growth for every compound here, please.
1. CO[C@@]1(NC(=O)C(C(=O)O)c2ccc(O)cc2)C(=O)N2C(C(=O)O)=C(CSc3nnnn3C)CO[C@@H]21 (stereo not given in full)
2. CN1C[C@H](C(=O)N[C@]2(C)O[C@@]3(O)[C@@H]4CCCN4C(=O)[C@H](Cc4ccccc4)N3C2=O)C[C@@H]2c3cccc4[nH]cc(c34)C[C@H]21
3. OCC(O)C(O)C(O)C(O)C(O)CO (stereo not given)
4. CN(C)c1ccc2nc3ccc(=[N+](C)C)cc-3sc2c1
5. COc1ccc(-c2cc(=O)c3c(O)cc(O[C@H]4O[C@H](CO[C@@H]5O[C@@H](C)[C@H](O)[C@@H](O)[C@H]5O)[C@@H](O)[C@H](O)[C@H]4O)cc3o2)cc1
6. C[C@]12C=CC(=O)C=C1CCC1C2[C@@H](O)C[C@@]2(C)C1CC[C@]2(O)C(=O)COP(=O)(O)O (stereo not given in full)
7. Cc1cc(OC(=O)c2c(C)cc(O)cc2O)cc(O)c1C(=O)O
8. CCOCN(C(=O)CCl)c1c(C)cccc1CC

Reply |
1. 0.987
2. 0.996
3. 0.985
4. 1.06
5. 0.998
6. 0.998
7. 0.975
8. 0.975
